Target: lactate dehydrogenase (LDH)
Experiment: phage ELISA, 405 nm; LDH coated
assay_metric: LDH (OD)

IN: Look up LDH (OD) for this binder: GEVDCVYALTHRFLSPQVQYHHRPVAAAGAPVPYPDPLEPRP (peptide, not shown: large carriers) [DGI-2-20C-3-A12]
OUT: 0.9

IN: Form field: reported LDH (OD) of TSCQVMFLAGQHLLSRVPRLAAAGAPVPYPDPLEPRP (peptide, not shown: large carriers) [DGL-2-20R-3-B6]
OUT: 1

IN: Which measured LDH (OD) value corresponds to DGI-2-40F-3-B122 (peptide, not shown: large carriers) peptide: HSGNRQSGSRRTHLLNIFCSSDTFVFPGWSAYLSRVCPGDAAAGAPVPYPDPLEPRP ?
OUT: 0.8

IN: Returns the measured LDH (OD) for the input binder. Input: WAGSTDLWQLWSLWVKPELRAAAGAPVPYPDPLEPRP (peptide, not shown: large carriers) [DGI-2-20F-3-B7]
OUT: 0.9

IN: Look at this binder and give its reported LDH (OD). LSLLSVVVRSMGASAPQRQVAAAGAPVPYPDPLEPRP (peptide, not shown: large carriers) [DGI-2-20F-3-A7]
OUT: 0.9

IN: Tell me the measured LDH (OD) of MSTLQGPGHLFQMLRRASLGAAAGAPVPYPDPLEPRP (peptide, not shown: large carriers) [DGI-2-20R-4-H12] , please.
OUT: 1.3

IN: What does the data say about its LDH (OD)? Entry: SWRLWVSGELQGDRRKGLRGAAAGAPVPYPDPLEPRP (peptide, not shown: large carriers) [DGI-2-20R-3-B7]
OUT: 1

IN: Tell me the measured LDH (OD) of GLRACDTYLGFCVGARRIDDAAAGAPVPYPDPLEPRP (peptide, not shown: large carriers) [DGI-2-20F-3-B102] , please.
OUT: 1

IN: May I ask what LDH (OD) has been recorded for LSHPMSPLRAASQMALTQGVAAAGAPVPYPDPLEPRP (peptide, not shown: large carriers) [DGI-2-20R-4-H7] ?
OUT: 1.2

IN: What does the record list as LDH (OD) for LTPYSLARSWLSGRPSTGATAAAGAPVPYPDPLEPRP (peptide, not shown: large carriers) [DGI-2-20F-3-C12] ?
OUT: 1

IN: For MAVLPAARDFGGVVQGGVSGAAAGAPVPYPDPLEPRP (peptide, not shown: large carriers) [DGI-2-20F-3-C2] , what is its reported LDH (OD)?
OUT: 1

IN: Name the reported LDH (OD) value associated with the binder GNKCFPPHDLFWDPCDQLQSAAAGAPVPYPDPLEPRP (peptide, not shown: large carriers) [DGI-2-20R-4-F6]
OUT: 1

IN: Consider the binder LVIQCSASVVACDLYWNYVGCLAAGAAAGAPVPYPDPLEPRP (peptide, not shown: large carriers) [DGI-2-20C-3-D12] and give its measured LDH (OD).
OUT: 1
